assay: In Vitro Microsome Stability Assay (mouse); format: in vitro ADME; details: mouse liver microsomes, 30 min w/ NADPH
In this section, each of the compounds is paired with its reported Liver Microsome Stability-% Left after 30 min w/ NADPH (%) Mouse.
quantity measured: Liver Microsome Stability-% Left after 30 min w/ NADPH (%) Mouse

                                   compound  unit_abbreviation  result
0  C[C@H]1CN(S(=O)(=O)c2ccc(N(C)C)cc2)CCCN(CC2CCCCC2)CCCN(S(=O)(=O)N2CCc3c(Cl)cccc3C2)C1 [A181]                  %    17.1
1  C[C@H]1CN(S(=O)(=O)c2ccc(N(C)C)cc2)CCCN([C@@H](C)C2CCCCC2)CCCN(S(=O)(=O)N2CCc3cc(Cl)ccc3C2)C1 [A190]                  %    69.3
2  C[C@H]1CN(S(=O)(=O)c2ccc(N(C)C)cc2)CCCN(CC2CCC(F)(F)CC2)CCCN(S(=O)(=O)N2CCc3cc(Cl)ccc3C2)C1 [A185]                  %    30.1
3  C[C@H]1CN(S(=O)(=O)c2ccc(N(C)C)cc2)CCCN(CCC2CCCCC2)CCCN(S(=O)(=O)N2CCc3cc(Cl)ccc3C2)C1 [A134]                  %    27.9
4  COc1c(N2CCN(S(=O)(=O)N3CCCN(CC4CCCCC4)CCCN(S(=O)(=O)c4ccc(N(C)C)cc4)C[C@H](C)C3)CC2)ccc(F)c1F [A174]                  %    36.9
5  Cc1cccc(C)c1N1CCN(S(=O)(=O)N2CCCN(CC3CCCCC3)CCCN(S(=O)(=O)c3ccc(N(C)C)cc3)C[C@H](C)C2)CC1 [A119]                  %    50.8
